target: 11-beta-hydroxysteroid dehydrogenase 1 (Homo sapiens, UniProt P28845); experiment: Inhibition of human 11beta-HSD1 expressed in HEK293 cells after 2 hrs by scintillation proximity assay
Sequence (P28845 whole entry): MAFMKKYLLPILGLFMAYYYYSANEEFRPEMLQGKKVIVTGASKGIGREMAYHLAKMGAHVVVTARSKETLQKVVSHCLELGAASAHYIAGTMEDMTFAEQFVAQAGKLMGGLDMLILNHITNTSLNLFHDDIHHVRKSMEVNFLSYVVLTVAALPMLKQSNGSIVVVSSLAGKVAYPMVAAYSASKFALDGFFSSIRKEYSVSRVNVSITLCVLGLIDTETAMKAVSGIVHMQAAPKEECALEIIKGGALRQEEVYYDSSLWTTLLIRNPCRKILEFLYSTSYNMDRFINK
pIC50: −log10 of the molar value.
measurement-type: pIC50

>>> value_measured("CCN1CCN(C(=O)C2CC3CCC2C3)CC1 (stereo unspecified)")
4.36

1: Cc1ccc(C23CC4CC(CC(C(=O)N5CCN(Cc6ccncc6)CC5)(C4)C2)C3)cc1
2: CCN1CCN(C(=O)C23CC4CC(CC(O)(C4)C2)C3)CC1
3: Cc1ccc(C23CC4CC(CC(C(=O)N5CCN(Cc6ccccc6)CC5)(C4)C2)C3)cc1
Task for the reader: rank each entry by its pIC50, from the minimum upward. Form entry: labels listed in requested order.
2, 1, 3

---

target: 11-beta-hydroxysteroid dehydrogenase 1 (Homo sapiens); test: Inhibition of human 11beta-HSD1 expressed in HEK293 cells after 2 hrs by scintillation proximity assay
measurement-type: IC50 (µM)

Here are 6 molecules together with their reported answers.
>>> value_measured("Cc1ccc(C23CC4CC(CC(C(=O)N5CCN(S(=O)(=O)c6ccccc6)CC5)(C4)C2)C3)cc1")
64
>>> value_measured("COCCN1CCN(C(=O)C23CC4CC(C2)CC(c2ccc(C)cc2)(C4)C3)CC1")
2.1
>>> value_measured("Cc1ccc(C23CC4CC(CC(C(=O)N5CCN(C(=O)c6ccccc6)CC5)(C4)C2)C3)cc1")
36
>>> value_measured("Cc1ccc(C23CC4CC(CC(C(=O)N5CCN(CCc6ccccc6)CC5)(C4)C2)C3)cc1")
1.9
>>> value_measured("Cc1ccc(C23CC4CC(CC(C(=O)N5CCN(C)CC5)(C4)C2)C3)cc1")
0.08
>>> value_measured("O=C(N1CCN(Cc2ccccc2)CC1)C12CC3CC(CC(C3)C1)C2")
7.2

I: CN1CCN(C(=O)C23CC4CC(CC(C4)C2)C3)CC1
II: Cc1ccc(C23CC4CC(CC(C(=O)N5CCN(C(C#N)C(C)C)CC5)(C4)C2)C3)cc1 (stereo unspecified)
III: CCN1CCN(C(=O)C2=C(C)c3ccccc3C2)CC1
IV: O=C(N1CCN(CCc2ccccc2)CC1)C12CC3CC(CC(C3)C1)C2
Task for the reader: rank each entry by its IC50, from the minimum upward. Form entry: labels listed in requested order.
I, II, III, IV
(I: 0.7 µM, II: 10 µM, III: 15 µM, IV: 47 µM)

1: CCN1CCN(C(=O)C2(c3ccc(F)cc3)CCCC2)CC1
2: CCN1CCN(C(=O)C23CC4CC(C2)CC(c2ccc(OC)cc2)(C4)C3)CC1
3: O=C(N1CCN(CCO)CC1)C12CC3CC(CC(C3)C1)C2
Task for the reader: rank each entry by its IC50, from the minimum upward. Form entry: labels listed in requested order.
2, 3, 1

---

In this section, each of the molecules is paired with its reported pIC50.
biological target: 11-beta-hydroxysteroid dehydrogenase 1 (Homo sapiens, UniProt P28845); assay: Inhibition of human 11beta-HSD1 expressed in HEK293 cells after 2 hrs by scintillation proximity assay
pIC50: −log10 of the molar value.

Here are 2 molecules together with their reported answers.
>>> value_measured("O=C(N1CCc2ccccc2C1)C12CC3CC(CC(C3)C1)C2")
5.25
>>> value_measured("CCN1CCN(C(=O)c2ccccc2)CC1")
"< 4.00"

For the next question, use this molecule.
Please report the recorded pIC50 for CCN1CCN(C(=O)C2CC2)CC1 .
< 4.00

---

molecular target: 11-beta-hydroxysteroid dehydrogenase type 2 (Homo sapiens) (UniProt P80365); assay: Inhibition of human 11beta-HSD2 at 10 uM by scintillation proximity assay
Sequence (P80365 whole entry): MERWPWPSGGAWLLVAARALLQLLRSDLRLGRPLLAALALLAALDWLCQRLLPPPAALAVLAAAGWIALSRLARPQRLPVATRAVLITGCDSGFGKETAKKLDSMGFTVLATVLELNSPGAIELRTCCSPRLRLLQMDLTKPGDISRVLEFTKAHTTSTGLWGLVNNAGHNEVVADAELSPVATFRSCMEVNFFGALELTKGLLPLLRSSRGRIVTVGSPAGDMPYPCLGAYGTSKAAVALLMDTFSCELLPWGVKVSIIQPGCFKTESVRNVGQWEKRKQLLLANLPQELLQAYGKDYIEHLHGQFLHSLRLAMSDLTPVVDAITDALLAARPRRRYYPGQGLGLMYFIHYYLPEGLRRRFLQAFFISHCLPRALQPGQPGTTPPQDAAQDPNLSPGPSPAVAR
measurement-type: inhibition (%)

>>> value_measured("CCN1CCN(C(=O)CC23CC4CC(CC(C4)C2)C3)CC1")
1

1: CCN1CCN(C(=O)C2CC3CCC2C3)CC1 (configuration not stated)
2: Cc1ccc(C23CC4CC(CC(C(=O)N5CCN(C(C#N)c6ccccc6)CC5)(C4)C2)C3)cc1 (configuration not stated)
Of 1 versus 2 , which is the one with smaller reported inhibition? Write down the label attached to your selection.
1

A: CCN1CCN(C(=O)C23CC4CC(CC(Cc5ccccc5)(C4)C2)C3)CC1
B: Cc1ccc(C23CC4CC(CC(C(=O)N5CCN(S(=O)(=O)c6ccccc6)CC5)(C4)C2)C3)cc1
C: O=C(N1CCN(CCO)CC1)C12CC3CC(CC(C3)C1)C2
Task for the reader: rank each entry by its inhibition, from the minimum upward. Form entry: labels listed in requested order.
A, C, B

P: CCN1CCN(C(=O)C2=C(C)c3ccccc3C2)CC1
Q: O=C(N1CCN(S(=O)(=O)Cc2ccccc2)CC1)C12CC3CC(CC(C3)C1)C2
Between P and Q , whose recorded inhibition is greater? Write down the label attached to your selection.
Q

P: O=C(N1CCN(CCc2ccccc2)CC1)C12CC3CC(CC(C3)C1)C2
Q: O=C(N1CCCC1)C12CC3CC(CC(C3)C1)C2
Between P and Q , whose recorded inhibition is greater? Write down the label attached to your selection.
Q
(Q: 37%, P: 0%)

---

target: 11-beta-hydroxysteroid dehydrogenase 1 (Homo sapiens, UniProt P28845); experiment: Inhibition of human 11beta-HSD1 expressed in HEK293 cells after 2 hrs by scintillation proximity assay
pIC50: −log10 of the molar value.
measurement-type: pIC50

>>> value_measured("O=C(N1CCN(S(=O)(=O)c2ccccc2)CC1)C12CC3CC(CC(C3)C1)C2")
"< 4.00"
>>> value_measured("CCN1CCN(C(=O)CC2CCCCC2)CC1")
"< 4.00"

For the next question, use this compound.
Please report the recorded pIC50 for CCN1CCN(C(=O)Cc2ccccc2)CC1 .
5.14
